Data origin: the supplement of paper PMC6555819

System: PPARg:RXRa (NR concentration 180 nM, RXRa partner concentration 90 nM)
Experiment: PBM binding z-score (relative to random genomic background probes); higher = stronger binding; sequences stand for … in GC…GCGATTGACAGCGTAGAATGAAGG
Items are presented alongside their recorded PBM binding z-score.
Respond using a number only.

// below: answered sequences
GGAACGAGGGGATTCGAGTTGATAGCATGGCGAT: 0.315
CCAGACAGGTGAGAAGGTAACTCATCCTCGATTA: 0.558
TCTATTATTTGAAGGGCAACCGACGAGTCCGTTT: 0.336
AGAATGAGGCTAAGATCAGGGAAACAGAATACAT: 0.645

State the recorded PBM binding z-score for this entry: CCTGCTAGGTCATGGTCAGCCAATCTACAGTATG 2.75

And ATTATTAGTTGACTTAGGGCAACCGATACGACGC ? 1.09

And for GCGACTGGGGCATCAGCAGGTTACAATAACTTAA ? 1.02

What do you get for TCTAGTTGGTCTCGGAGGTCACACACGACGGGTA ? 1.68

Can you handle CGTCCAAGGTCAAAGGTCCGTGAAGAGATGACGG next? 6.71

Another sequence to look at: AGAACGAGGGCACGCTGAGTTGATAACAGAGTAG 2.11

Also CCTTACGGGTCACGAAGTTATAGCACGACGAGCG ? 6.25

// next record TCATATAGGTTAATGCTAGGTGAAAGTCCGATCT 2.14

Can you handle TTACCAAGGTGAGCGGAGGTCGTTGATCCAACTC next? 0.414
